Tested on: WM3928 cells
Experiment: WM3928 Cell Proliferation Assay (1)
Assay type: cell-based
measuredAttribute: IC50

compound="Cc1ccc(NC(=O)c2ccnc(C(C)(C)C#N)c2)cc1-c1cnnc(-c2ccnc(NC(=O)C3CC3)c2)c1 [Example 230]" systemundertest="WM3928 cells" reading="≤ 100 nM"
compound="CC(=O)Nc1nccc(-c2cccc(-c3cc(NC(=O)c4ccnc(C(F)(F)F)c4)ccc3C)c2)c1C#N [Example 132]" systemundertest="WM3928 cells" reading="100 to 500 nM"
compound="Cc1cc(F)c(NC(=O)c2ccnc(C3(C#N)CC3)c2)cc1-c1ccnc(-c2ccnc(NC(=O)C3CC3)c2)n1 [Example 262]" systemundertest="WM3928 cells" reading="≤ 100 nM"
compound="CNC(=O)c1cc(-c2cccc(-c3cc(NC(=O)c4ccnc(C(C)(C)C#N)c4)ccc3C)c2)cnn1 [Example 191]" systemundertest="WM3928 cells" reading="≤ 100 nM"

Value source: patent US12319655B2
